Known pIC50 of a selection of compounds
# system tested: cGMP-specific 3',5'-cyclic phosphodiesterase (Homo sapiens)
# experiment: Inhibition of human recombinant PDE5A1 by fluorescence based assay
pIC50: −log10 of the molar value.
measure name: pIC50

smiles data: Cn1ccc2cc(CNc3c(CO)cnc4c(C5CC5)cc(C#N)cc34)ccc21
system tested: cGMP-specific 3',5'-cyclic phosphodiesterase (Homo sapiens)
observed result: 5.55
//
smiles data: [2H]C([2H])(Nc1c(CO)cnc2c(C3CC3)cc(C#N)cc12)c1ccc(OC)c(Cl)c1
system tested: cGMP-specific 3',5'-cyclic phosphodiesterase (Homo sapiens)
observed result: 8.30
//
smiles data: COc1cc(CNc2c(CO)cnc3c(C4CC4)cc(C#N)cc23)cc(OC)c1OC
system tested: cGMP-specific 3',5'-cyclic phosphodiesterase (Homo sapiens)
observed result: 5.47

----------
# experiment: Metabolic stability in human liver microsomes assessed as half life
# Format: ADME, Microsome

smiles data: [2H]C([2H])(Nc1c(CO)cnc2c(C3CC3)cc(C#N)cc12)c1ccc(OC)c(Cl)c1
value units: min
t1/2: 16.4
--
smiles data: COc1cc(CNc2c(CO)cnc3c(C4CC4)cc(C#N)cc23)ccn1
value units: min
t1/2: 28.8
--
smiles data: N#Cc1cc(C2CC2)c2ncc(CO)c(NCc3ccnc(Cl)c3)c2c1
value units: min
t1/2: 17.3
--
smiles data: N#Cc1cc(C2CC2)c2ncc(CO)c(NCc3ccc4c(c3)OCO4)c2c1
value units: min
t1/2: 15.7
--
smiles data: COc1ccc(CNc2c(CO)cnc3c(C4CC4)cc(C#N)cc23)cn1
value units: min
t1/2: 44.6
--
smiles data: COc1ncc(CNc2c(CO)cnc3c(C4CC4)cc(C#N)cc23)cc1Cl
value units: min
t1/2: 19.5
--
smiles data: COc1ccc(CNc2c(CO)cnc3c(C4CC4)cc(C#N)cc23)cc1Cl
value units: min
t1/2: 20.5

----------
# system tested: UniProtKB O76074
# experiment: Inhibition of human recombinant PDE5A1 by fluorescence based assay
pIC50: −log10 of the molar value.
measure name: pIC50

smiles data: N#Cc1cc(C2CC2)c2ncc(CO)c(NCc3ccc4c(c3)OCO4)c2c1
system tested: UniProtKB O76074
measure name: pIC50
observed result: 6.72
--
smiles data: COc1ncc(CNc2c(CO)cnc3c(C4CC4)cc(C#N)cc23)cc1Cl
system tested: UniProtKB O76074
measure name: pIC50
observed result: 7.52
--
smiles data: CCOC(=O)c1cnc2c(C3CC3)cc(C#N)cc2c1NCc1ccc(OC)nc1
system tested: UniProtKB O76074
measure name: pIC50
observed result: 5.89
--
smiles data: COc1cc(CNc2c(CO)cnc3c(C4CC4)cc(C#N)cc23)ccn1
system tested: UniProtKB O76074
measure name: pIC50
observed result: 6.74
--
smiles data: N#Cc1cc(C2CC2)c2ncc(CO)c(NCc3ccnc(Cl)c3)c2c1
system tested: UniProtKB O76074
measure name: pIC50
observed result: 6.09

----------
# experiment: Metabolic stability in human liver microsomes assessed as intrinsic clearance
# Assay type: ADME, Microsome
measure name: CLH (µL/min/mg)

smiles data: COc1ncc(CNc2c(CO)cnc3c(C4CC4)cc(C#N)cc23)cc1Cl
observed result: 72

smiles data: COc1ccc(CNc2c(CO)cnc3c(C4CC4)cc(C#N)cc23)cn1
observed result: 31

smiles data: COc1ccc(CNc2c(CO)cnc3c(C4CC4)cc(C#N)cc23)cc1Cl
observed result: 80

smiles data: COc1cc(CNc2c(CO)cnc3c(C4CC4)cc(C#N)cc23)ccn1
observed result: 48

smiles data: [2H]C([2H])(Nc1c(CO)cnc2c(C3CC3)cc(C#N)cc12)c1ccc(OC)c(Cl)c1
observed result: 85

smiles data: N#Cc1cc(C2CC2)c2ncc(CO)c(NCc3ccc4c(c3)OCO4)c2c1
observed result: 88

smiles data: N#Cc1cc(C2CC2)c2ncc(CO)c(NCc3ccnc(Cl)c3)c2c1
observed result: 80
